SYSTEM: human XIAP_BIR3 domain purified protein (Homo sapiens, UniProt P98170)
Construct: purchased R & D
Sequence (P98170 252-356 limits assumed): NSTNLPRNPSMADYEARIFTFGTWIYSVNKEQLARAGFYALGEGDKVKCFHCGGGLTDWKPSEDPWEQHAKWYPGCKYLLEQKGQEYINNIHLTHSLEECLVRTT
PROTOCOL DETAILS: XIAP binding inhibitory activity, HTRF method with b-Smac ligand
ASSAY SETUP: test compound 3 μM; first symbol of the cell; read-out: XIAP binding inhibition rate when the concentration of the test compound is 3 μM
Counter-ions that a name gives are not always drawn.
Listed next: entries and their corresponding inhibition at 3 µM.
ENDPOINT LABEL: inhibition at 3 µM

1) CN[C@@H](C)C(=O)N[C@H](C(=O)N1CCN(C(=O)c2cc3cc(F)c(F)cc3n2C)CC1)C1CCCCC1
> 75%
2) COc1ccc2cc(C(=O)N3CCN(C(=O)CN4C[C@@H](C)NC[C@@H]4CN(C)CCOCCO)CC3)n(C)c2c1 [Example 40, Hydrochloride]
> 75%
3) CN[C@@H](C)C(=O)N[C@H](C(=O)N1CCN(C(=O)c2ccc3nc(C)n(C)c3c2)CC1)C1CCCCC1
> 25%
4) CN[C@@H](C)C(=O)N[C@H](C(=O)N1CCN(C(=O)c2c(OCCOCCOCCOCCO)c3cc(F)c(F)cc3n2C)CC1)C1CCCCC1
25 to 50%
5) CN[C@@H](C)C(=O)N[C@H](C(=O)N1CCN(C(=O)c2cc3ccc(F)cc3n2C)CC1)C1CCCCC1
50 to 75%
6) CN[C@@H](C)C(=O)N[C@H](C(=O)N1CCN(C(=O)c2ccn3nccc3c2)CC1)C1CCCCC1
25 to 50%
7) CN[C@@H](C)C(=O)N[C@H](C(=O)N1CCN(C(=O)c2c(C(=O)NCCOC)c3ccc(OC)cc3n2C)CC1)C1CCCCC1 [Example 25, Hydrochloride]
> 75%
8) CN[C@@H](C)C(=O)N[C@H](C(=O)N1CCN(C(=O)c2c(C(=O)NCCOCCOCCNC(=O)c3c(C(=O)N4CCN(C(=O)[C@@H](NC(=O)[C@H](C)NC)C5CCCCC5)CC4)n(C)c4ccc(F)cc34)c3cc(F)ccc3n2C)CC1)C1CCCCC1 [Example 86, bistrifluoroacetate]
> 75%
9) CN[C@@H](C)C(=O)N[C@H](C(=O)N1CCN(C(=O)c2ccc3cnn(C)c3c2)CC1)C1CCCCC1
> 25%
10) CN[C@@H](C)C(=O)N[C@H](C(=O)N1CCN(C(=O)c2c(C(=O)NCC(=O)OC)c3ccc(OC)cc3n2C)CC1)C1CCCCC1 [Example 27, Hydrochloride]
> 75%
11) CN[C@@H](C)C(=O)N[C@H](C(=O)N1CCN(C(=O)c2ccn3cc(C)nc3c2)CC1)C1CCCCC1
> 25%
12) CN[C@@H](C)C(=O)N[C@H](C(=O)N1CCN(C(=O)c2c(C=O)c3cc(F)ccc3n2C)CC1)C1CCCCC1 [Example 35, Hydrochloride]
> 75%

----------
Listed next: entries and their corresponding inhibition at 3 µM.
SYSTEM: human XIAP_BIR3 domain purified protein (Homo sapiens)
Construct: purchased R & D
PROTOCOL DETAILS: XIAP binding inhibitory activity, HTRF method with b-Smac ligand
ASSAY SETUP: test compound 3 μM; first symbol of the cell; read-out: XIAP binding inhibition rate when the concentration of the test compound is 3 μM
ENDPOINT LABEL: inhibition at 3 µM

1) CN[C@@H](C)C(=O)N[C@H](C(=O)N1CCN(C(=O)c2cc(C3CC3)nn2C)CC1)C1CCCCC1
> 25%
2) CN[C@@H](C)C(=O)N[C@H](C(=O)N1CCN(C(=O)c2ccc3nn(C)cc3c2)CC1)C1CCCCC1
25 to 50%
3) CN[C@@H](C)C(=O)N[C@H](C(=O)N1CCN(C(=O)c2ccn3nccc3c2C)CC1)C1CCCCC1
50 to 75%
4) CN[C@@H](C)C(=O)N[C@H](C(=O)N1CCN(C(=O)c2cc3cccnc3n2C)CC1)C1CCCCC1
> 25%

----------
SYSTEM: human XIAP_BIR3 domain purified protein (Homo sapiens, UniProt P98170)
Construct: purchased R & D
PROTOCOL DETAILS: XIAP binding inhibitory activity, HTRF method with b-Smac ligand
ASSAY SETUP: test compound 3 μM; first symbol of the cell; read-out: XIAP binding inhibition rate when the concentration of the test compound is 3 μM
Counter-ions that a name gives are not always drawn.
Listed next: entries and their corresponding inhibition at 3 µM.
ENDPOINT LABEL: inhibition at 3 µM

1) CN[C@@H](C)C(=O)N[C@H](C(=O)N1CCN(C(=O)c2cc3cccc(C)c3n2C)CC1)C1CCCCC1
50 to 75%
2) CCOc1cc(C(=O)N2CCN(C(=O)[C@@H](NC(=O)[C@H](C)NC)C3CCCCC3)CC2)n(C)n1
> 25%
3) CN[C@@H](C)C(=O)N[C@H](C(=O)N1CCN(C(=O)c2c(C(=O)NCCOCCOCCNC(=O)OCC3c4ccccc4-c4ccccc43)c3ccc(OC)cc3n2C)CC1)C1CCCCC1 [Example 38, Hydrochloride]
> 75%
4) COc1ccc2cc(C(=O)N3CCN(C(=O)CN4C[C@@H](C)NC[C@@H]4CN4CCOC[C@H]4C)CC3)n(C)c2c1
> 75%
5) CN[C@@H](C)C(=O)N[C@H](C(=O)N1CCN(C(=O)c2cc3ccnn3cc2F)CC1)C1CCCCC1
> 25%
6) CN[C@@H](C)C(=O)N[C@H](C(=O)N1CCN(C(=O)c2c(C(=O)NCCOCCOCC(=O)N3CCN(c4ccc(Nc5ncc6nnn(-c7ccc(OC)c(OC)c7)c6n5)cc4)CC3)c3ccc(OC)cc3n2C)CC1)C1CCCCC1
> 75%

----------
SYSTEM: human XIAP_BIR3 domain purified protein (Homo sapiens)
pIC50: −log10 of the molar value. Where a name gives a salt, the structure may show the parent alone.
Listed next: entries and their corresponding pIC50.
ENDPOINT LABEL: pIC50

1) CN[C@@H](C)C(=O)N[C@H](C(=O)N1CCN(C(=O)c2cc3cc(F)ccc3n2C)C[C@H]1C)C1CCCCC1 [Example 58, Trifluoroacetate]
5.52 to 6.52
2) CN[C@@H](C)C(=O)N[C@H](C(=O)N1CCN(C(=O)c2c(OCCOCCO)c3cc(F)c(F)cc3n2C)CC1)C1CCCCC1
4.52 to 5.52
3) CN[C@@H](C)C(=O)N[C@H](C(=O)N1C2CC1CN(C(=O)c1cc3cc(F)c(F)cc3n1C)C2)C1CCCCC1
4.52 to 5.52
4) C[C@@H]1CN(CC(=O)N2CCN(C(=O)c3cc4cc(F)c(F)cc4n3C)C[C@H]2C)[C@@H](COCCOCCOCCO)CN1
4.52 to 5.52
5) CN[C@@H](C)C(=O)N[C@H](C(=O)N1CCN(C(=O)c2c(C(=O)NCCOCCOCCNC(=O)c3c(C(=O)N4CCN(C(=O)[C@@H](NC(=O)[C@H](C)NC)C5CCCCC5)CC4)n(C)c4ccc(F)cc34)c3cc(F)ccc3n2C)CC1)C1CCCCC1 [Example 86, bistrifluoroacetate]
> 6.52
6) CN[C@@H](C)C(=O)N[C@H](C(=O)N1CCN(C(=O)c2cc3c(OCCOCCOCCOCCO)c(F)c(F)cc3n2C)CC1)C1CCCCC1
5.52 to 6.52
7) CN[C@@H](C)C(=O)N[C@H](C(=O)N1CCN(C(=O)c2c(C(=O)NCCOCCOCCOCCN3CCN(c4cc(Nc5ncc(C(=O)Nc6c(C)cccc6Cl)s5)nc(C)n4)CC3)c3cc(F)c(F)cc3n2C)CC1)C1CCCCC1 [Example 82, Trifluoroacetate]
5.52 to 6.52
8) CN[C@@H](C)C(=O)N[C@@H](C(=O)N1CCN(C(=O)c2cc3cc(F)c(F)cc3n2CCOCCOCc2ccccc2)CC1)C1CCCCC1 [Example 46, Hydrochloride]
4.52 to 5.52
9) CN[C@@H](C)C(=O)N[C@H](C(=O)N1CCN(C(=O)c2cc3cc(F)c(F)cc3n2CCOCCOCCOCCO)CC1)C1CCCCC1
4.52 to 5.52
10) CN[C@@H](C)C(=O)N[C@H](C(=O)N1CCN(C(=O)c2cc3cc(F)ccc3n2CCOC)CC1)C1CCCCC1
4.52 to 5.52
11) CN[C@@H](C)C(=O)N[C@H](C(=O)N1CCN(C(=O)c2c(C(=O)NCCOCCOCCOCCNC(=O)C[C@@H]3N=C(c4ccc(Cl)cc4)c4c(sc(C)c4C)-n4c(C)nnc43)c3ccc(OC)cc3n2C)CC1)C1CCCCC1
> 6.52
12) CN[C@@H](C)C(=O)N[C@H](C(=O)N1CCN(C(=O)c2c(C(=O)NCCOCCOCCN3CCN(c4cc(Nc5ncc(C(=O)Nc6c(C)cccc6Cl)s5)nc(C)n4)CC3)c3cc(F)c(F)cc3n2C)CC1)C1CCCCC1 [Example 81, trifluoroacetate]
5.52 to 6.52
13) CN[C@@H](C)C(=O)N[C@H](C(=O)N1CCN(C(=O)c2ccc3c(c2)cc(C)n3CCOCCOCCOCCO)CC1)C1CCCCC1
5.52 to 6.52
14) CN[C@@H](C)C(=O)N[C@H](C(=O)N1CCN(C(=O)c2cc3cc(F)c(F)cc3n2CCOCCO)CC1)C1CCCCC1
4.52 to 5.52
15) CN[C@@H](C)C(=O)N[C@H](C(=O)N1CCN(C(=O)c2cc3cc(F)c(F)cc3n2CCOCCOCCO)CC1)C1CCCCC1
4.52 to 5.52
16) C[C@@H]1CN(CC(=O)N2CCN(C(=O)c3cc4cc(F)c(F)cc4n3C)C[C@H]2C)[C@@H](COCCOCCOCCOCCO)CN1
4.52 to 5.52
17) CN[C@@H](C)C(=O)N[C@H](C(=O)N1CCN(C(=O)c2ccc3c(c2)cc(C)n3CCOCCOCCO)CC1)C1CCCCC1
> 6.52
18) CN[C@@H](C)C(=O)N[C@H](C(=O)N1CCN(C(=O)c2cc3cc(F)c(OC)cc3n2C)C[C@H]1C)C1CCCCC1
5.52 to 6.52
19) CN[C@@H](C)C(=O)N[C@H](C(=O)N1CCN(C(=O)c2c(OCCOCCOCc3ccccc3)c3cc(F)c(F)cc3n2C)CC1)C1CCCCC1
4.52 to 5.52
20) CN[C@@H](C)C(=O)N[C@H](C(=O)N1CCN(C(=O)c2c(C(=O)NCCOCCOCCOc3ccc(NC(=O)C[C@@H]4N=C(c5ccc(Cl)cc5)c5c(sc(C)c5C)-n5c(C)nnc54)cc3)c3cc(F)c(F)cc3n2C)CC1)C1CCCCC1 [Example 78, hydrochloride]
5.52 to 6.52
21) CN[C@@H](C)C(=O)N[C@H](C(=O)N1CCN(C(=O)c2cc3c(OCCOCCOCCOCc4ccccc4)c(F)c(F)cc3n2C)CC1)C1CCCCC1
4.52 to 5.52
22) CN[C@@H](C)C(=O)N[C@H](C(=O)N1CCN(C(=O)c2c(C(=O)NCCOCCOCCNC(=O)C[C@@H]3N=C(c4ccc(Cl)cc4)c4c(sc(C)c4C)-n4c(C)nnc43)c3ccc(OC)cc3n2C)CC1)C1CCCCC1 [Example 72, Hydrochloride]
> 6.52
23) CN[C@@H](C)C(=O)N[C@H](C(=O)N1CCN(C(=O)c2cc3c(OCCOCCOCCO)c(F)c(F)cc3n2C)CC1)C1CCCCC1
5.52 to 6.52
24) CN[C@@H](C)C(=O)N[C@H](C(=O)N1CCN(C(=O)c2cc3cc(F)c(F)cc3n2C)C[C@H]1C)C1CCCCC1 [Example 56, Trifluoroacetate]
4.52 to 5.52
